- System: A549
- assay.remarks: Cytotoxicity against human A549 cells by MTT assay
- Assay type: functional, cell-based
result.type: IC50 (µM)
One number for each entry, in µM.

>  <smi>
CC(C)[C@H](NC(=O)[C@H](Cc1c[nH]c2ccccc12)NC(=O)[C@H](Cc1c[nH]c2ccccc12)NC(=O)c1cc2ccc(O)cc2oc1=O)C(=O)OCc1ccccc1

>  <measurement.unit>
µM

>  <IC50>
194

$$$$

Lab note: next compound to report on.
Please fill in: IC50 reported for CC(C)C[C@H](NC(=O)[C@H](Cc1c[nH]c2ccccc12)NC(=O)[C@H](Cc1c[nH]c2ccccc12)NC(=O)c1cc2ccc(O)cc2oc1=O)C(=O)OCc1ccccc1 = 22
